- assay_comment: Therapeutic index, ratio of IC50 for cytotoxicty against mouse BV-2 cells assessed as reduction in cell viability by crystal violet staining based assay to IC50 for nti-neuroinflammatory activity in mouse BV-2 cells assessed as inhibition of LPS-induced NO production
- Type: toxicity
- setup_conditions: read-out: Ratio IC50
Criterion: selectivity ratio strictly less than 2. Met: YES. Not met: NO.

Illustrative cases are given below, each with its answer.
INSERT INTO results (compound, assigned_class) VALUES
  ('C=C(C)[C@@H]1CCC(C)=C[C@H]1c1c(O)cc(C(C)n2ccnc2)cc1O (some centres undefined)', 'NO'),
  ('C=C(C)[C@@H]1CCC(C)=C[C@H]1c1c(O)cc(CCCCC)cc1OCC', 'YES'),
  ('C=C(C)[C@@H]1CCC(C)=C[C@H]1c1c(O)cc(CCCCC)cc1OC', 'YES');

Is selectivity ratio strictly under 2 for the entry C=C(C)[C@@H]1CCC(C)=C[C@H]1c1c(O)cc(CCCCC)cc1O ?
YES

Here is the next compound: C=C(C)[C@@H]1CCC(C)=C[C@H]1c1c(O)cc(CCC)cc1O
NO

Here is the next compound: C=C(C)[C@@H]1CCC(C)=C[C@H]1c1c(O)cc(C(C)n2cccc2)cc1O (some centres undefined)
NO

Here is the next compound: C#CCOc1cc(CCCCC)cc(O)c1[C@@H]1C=C(C)CC[C@H]1C(=C)C
YES

Here is the next compound: C=C(C)[C@@H]1CCC(C)=C[C@H]1c1c(O)cc(CCCCCC)cc1O
NO

Here is the next compound: C=C(C)[C@@H]1CCC(C)=C[C@H]1c1c(O)cc(C(C)n2ccnn2)cc1O (some centres undefined)
NO
